Listed compounds paired with reported CC50
Test system: PANC-1
Experiment: Inhibition of cell growth by colorimetric SRB assay, PANC-1
Type: cell-based
Conditions: Homo sapiens; PANC-1; 48 hours exposure; cell killing; read-out: LC50 (the source's name)
Property Label: CC50 (µM)

Compound	Value Unit	Numeric Readout
C/C=C\[C@H](C)[C@H]1OC1(C)[C@@H](O)[C@@H](CO)C(=O)[C@@H](CO)[C@H](O)CC(=O)CC (stereo partly drawn)	µM	26.8
C/C=C\[C@H](C)[C@H]1OC1(C)[C@@H](O[Si](C)(C)C(C)(C)C)[C@@H](CO)C(=O)[C@@H](CO)[C@H](O)CC(=O)CC (stereo partly drawn) [31b + 31d]	µM	20.5
C/C=C\[C@H](C)[C@H]1OC1(C)[C@@H](O[Si](C)(C)C(C)(C)C)[C@@H](CO[Si](C)(C)C(C)(C)C)C(=O)[C@H](CO[Si](C)(C)C(C)(C)C)[C@H](CC(=O)CC)O[Si](C)(C)C(C)(C)C (stereo partly drawn) [Compound 19a]	µM	12.1
C/C=C\[C@H](C)[C@H]1OC1(C)[C@@H](O[Si](C)(C)C(C)(C)C)[C@@H](CO)C(=O)[C@H](CO)[C@H](O)CC(=O)CC (stereo partly drawn) [20b + 20d]	µM	20.5
C/C=C\[C@H](C)[C@H]1OC1(C)[C@@H](O)[C@@H](CO)C(=O)[C@H](CO)[C@H](O)CC(=O)CC (stereo partly drawn)	µM	26.8
C/C=C\[C@H](C)[C@H]1OC1(C)[C@@H](O[Si](C)(C)C(C)(C)C)[C@@H](COC(C)=O)C(=O)[C@H](CO)[C@H](O)CC(=O)CC (stereo partly drawn)	µM	13.2

---

Tested on: SK-BR-3

Compound	Value Unit	GI50
C/C=C\[C@H](C)[C@H]1OC1(C)[C@@H](O[Si](C)(C)C(C)(C)C)[C@@H](CO[Si](C)(C)C(C)(C)C)C(=O)[C@H](CO[Si](C)(C)C(C)(C)C)[C@@H](CC(=O)CC)O[Si](C)(C)C(C)(C)C (stereo partly drawn) [Compound 19b]	µM	6.15
C/C=C\[C@H](C)[C@H]1OC1(C)[C@@H](O[Si](C)(C)C(C)(C)C)[C@@H](CO[Si](C)(C)C(C)(C)C)C(=O)[C@@H](CO[Si](C)(C)C(C)(C)C)[C@@H](CC(=O)CC)O[Si](C)(C)C(C)(C)C (stereo partly drawn) [Compound 30b]	µM	12.1
C/C=C\[C@H](C)[C@H]1OC1(C)[C@@H](O)[C@@H](CO)C(=O)[C@@H](CO)[C@H](O)CC(=O)CC (stereo partly drawn)	µM	20.5

// data source = patent US7521478B2
